For Human NLRP3 (Homo sapiens (Human), UniProt Q96P20), measured IC50 is reported for the entries below.
Write the answer as a number in nM, unit excluded.

Recorded results for 5 compounds are shown here.
>  <QUERY SMILES>
C[C@]1(O)C[C@@H](Nc2nnc(-c3cc(F)c(F)cc3O)c3ccncc23)C1

>  <IC50 [nM]>
570

$$$$
>  <QUERY SMILES>
C[C@]1(O)C[C@@H](Nc2nnc(-c3c(O)cc(C(F)(F)F)cc3F)c3ccncc23)C1

>  <IC50 [nM]>
8

$$$$
>  <QUERY SMILES>
C[C@]1(O)C[C@@H](Nc2nnc(-c3c(O)cccc3F)c3ccccc23)C1

>  <IC50 [nM]>
976

$$$$
>  <QUERY SMILES>
C[C@]1(O)C[C@@H](Nc2nnc(-c3c(O)cccc3F)c3cccnc23)C1

>  <IC50 [nM]>
551

$$$$
>  <QUERY SMILES>
C[C@]1(O)C[C@@H](Nc2nnc(-c3ccc(Cl)c(F)c3O)c3ccncc23)C1

>  <IC50 [nM]>
37

$$$$

Asked: Using Human NLRP3 (Homo sapiens (Human), UniProt Q96P20) as the test system, report measured IC50 of `C[C@]1(O)C[C@@H](Nc2nnc(-c3c(O)cc(F)cc3F)c3ccncc23)C1` .
Given back: 38

Asked: Please respond with reported IC50 (system Human NLRP3 (Homo sapiens (Human), UniProt Q96P20)) for `C[C@]1(O)C[C@@H](Nc2nnc(-c3ccc(OC(F)(F)F)cc3O)c3ccncc23)C1` .
Given back: 8

Asked: Please report IC50 with Human NLRP3 (Homo sapiens (Human), UniProt Q96P20) for item `C[C@]1(O)C[C@@H](Nc2nnc(-c3c(O)cccc3F)c3ccncc23)C1` .
Sequence (Q96P20 whole entry): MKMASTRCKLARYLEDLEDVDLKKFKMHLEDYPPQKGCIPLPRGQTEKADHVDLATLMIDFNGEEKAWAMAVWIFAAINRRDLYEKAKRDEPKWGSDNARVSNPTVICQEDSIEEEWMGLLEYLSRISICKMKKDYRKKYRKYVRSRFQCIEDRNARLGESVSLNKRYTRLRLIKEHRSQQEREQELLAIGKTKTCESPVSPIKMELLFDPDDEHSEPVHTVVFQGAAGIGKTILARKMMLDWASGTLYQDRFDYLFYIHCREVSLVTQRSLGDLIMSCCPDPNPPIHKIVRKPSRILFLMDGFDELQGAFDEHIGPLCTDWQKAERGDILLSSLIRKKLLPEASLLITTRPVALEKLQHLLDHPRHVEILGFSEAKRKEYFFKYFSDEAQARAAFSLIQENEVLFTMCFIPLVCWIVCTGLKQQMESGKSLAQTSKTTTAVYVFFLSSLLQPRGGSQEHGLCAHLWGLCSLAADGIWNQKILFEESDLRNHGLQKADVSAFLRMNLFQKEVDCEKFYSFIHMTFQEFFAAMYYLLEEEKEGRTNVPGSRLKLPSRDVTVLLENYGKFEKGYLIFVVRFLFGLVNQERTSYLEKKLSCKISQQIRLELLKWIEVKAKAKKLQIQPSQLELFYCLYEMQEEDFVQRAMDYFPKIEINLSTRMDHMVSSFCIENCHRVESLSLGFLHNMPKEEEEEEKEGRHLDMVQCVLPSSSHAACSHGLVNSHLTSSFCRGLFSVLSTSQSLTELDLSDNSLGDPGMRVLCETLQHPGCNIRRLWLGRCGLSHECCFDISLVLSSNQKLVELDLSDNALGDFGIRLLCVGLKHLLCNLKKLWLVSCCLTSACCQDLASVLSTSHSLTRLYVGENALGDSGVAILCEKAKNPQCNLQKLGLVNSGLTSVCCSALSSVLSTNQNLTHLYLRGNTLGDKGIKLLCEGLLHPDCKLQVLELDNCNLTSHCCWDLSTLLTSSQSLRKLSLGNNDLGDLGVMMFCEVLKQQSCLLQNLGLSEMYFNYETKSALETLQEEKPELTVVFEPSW
Given back: 111

Asked: # assay system Human NLRP3 (Homo sapiens (Human), UniProt Q96P20): give IC50 of `C[C@]1(O)C[C@@H](Nc2nnc(-c3ccc(Cl)cc3O)c3ccncc23)C1`
Given back: 2
